PROCEDURE TEXT: Half life in human plasma
Format: ADME, cell-free
EXPERIMENTAL READOUT: half-life

>>> assay_value("C#CCNC(=O)C(=O)c1c(C)c(C(=O)Nc2ccc(F)c(F)c2)n(C)c1C")
"> 24 h"

###

PROCEDURE TEXT: Cytotoxicity against human HePAD38 cells
Format: toxicity, cell-based
Rule: CC50 below 10 µM gives t. Equal to or above 10 µM gives f.

>>> classification("O=C(Nc1cc(F)c(F)c(F)c1)c1ccc(F)c(S(=O)(=O)N2CCC(O)CC2)c1")
"t"
>>> classification("O=C(Nc1cc(F)c(F)c(F)c1)c1ccc(F)c(S(=O)(=O)N2CCC(=NO)CC2)c1")
"t"
>>> classification("O=C(Nc1cc(F)c(F)c(F)c1)c1ccc(F)c(S(=O)(=O)NC2CCC(O)CC2)c1 (stereo not drawn)")
"f"
>>> classification("O=C1CC2CN(S(=O)(=O)c3cc(C(=O)Nc4cc(F)c(F)c(F)c4)ccc3F)CC2C1 (stereo not drawn)")
"f"
>>> classification("O=C(Nc1cc(F)c(F)c(F)c1)c1ccc(F)c(S(=O)(=O)N2C[C@H]3CC[C@@H]2CC3O)c1 (stereo partly drawn)")
"f"
>>> classification("O=C1CCN(S(=O)(=O)c2cc(C(=O)Nc3cc(F)c(F)c(F)c3)ccc2F)CC1")
"t"
>>> classification("O=C(Nc1cc(F)c(F)c(F)c1)c1ccc(F)c(S(=O)(=O)N2CC3CC(O)CC3C2)c1 (stereo not drawn)")
"f"
>>> classification("O=C(Nc1cc(F)c(F)c(F)c1)c1ccc(F)c(S(=O)(=O)N2C[C@H]3CC[C@@H]2CC3=O)c1")
"t"
